meta.source: the supplement of paper PMC9170038

test system: MS2 coat protein; assay: apparent KD of MS2 coat protein; designed switch direction (-1 OFF switch, 1 ON switch): -1; higher = weaker reporter binding; conditions: Eterna round: R95; input ligand: microRNA oligo, concentration not stated
I'd be grateful if you could share measured apparent KD of MS2 coat protein for these entries.
One number for each entry, in nM.

CCAUCGUGUGUGAGGAUAUGCUGGUCCUUGGAUCAGCAGAAGGCACAUGAGGAUCACCCAUGUGAAGACGGUGG [JL bmx4 3.22] (puzzle: Brourd's mod of Exclusion 4): 17.4
GAUAGACAUGAGGAUCACCCAUGUGAGGAUAUGCGUACGUUGUCAGUAGGCGACGUGCGCAGAAGGCGCAAGUU [Mat - Mod of JL D91] (puzzle: Exclusion 1): 61.8
AAGAAACAUGAGGAUCACCCAUGUGAGGAUAUGAAAAAGAAAAUAAAAUAAAGAAGAAUCAGAAGGCACAAAGG [Mat - Mod of Hog D4] (puzzle: Exclusion 1): 24.9
AAACAGGAAGGAUAUACAUUAUCGGAUCUUCUGGCAAUGCCACAUGAGGAUCACCCAUGUAGAAGGUCCAAAUU [Isenona] (puzzle: Exclusion 2): 12.7

Shifting focus to the sequence that follows.
Field request: apparent KD of MS2 coat protein | item: GGUUGGCGAGGAUAUACAUGAGGAUCACCCAUGUGAGAGAAAGAAGUGAGGAAGAAAAGUAGAAGGUGCUGACG [salish99_ex3_r3_055] (puzzle: Exclusion 3) 63.2
